assay: relative nephrotoxicity of HPBCD and BCD, intraperitoneal; type: in vivo, rat; details: rat, in vivo, ip; BCD 0.75%, 1d, n = 6
readoutType: mortality at 24 h (%)
Dear colleague, please return just the value in %, with no unit written.

Entry OC[C@H]1O[C@@H]2O[C@H]3[C@H](O)[C@@H](O)[C@@H](O[C@H]4[C@H](O)[C@@H](O)[C@@H](O[C@H]5[C@H](O)[C@@H](O)[C@@H](O[C@H]6[C@H](O)[C@@H](O)[C@@H](O[C@H]7[C@H](O)[C@@H](O)[C@@H](O[C@H]8[C@H](O)[C@@H](O)[C@@H](O[C@H]1[C@H](O)[C@H]2O)O[C@@H]8CO)O[C@@H]7CO)O[C@@H]6CO)O[C@@H]5CO)O[C@@H]4CO)O[C@@H]3CO : reported mortality at 24 h = ?
16.7

Values compiled from patent US4889634A.
